Molecular target: 3T3-L1 adipocytes (Mus musculus, UniProt P16092+Q99N32)
Sequence (Q99N32 whole entry): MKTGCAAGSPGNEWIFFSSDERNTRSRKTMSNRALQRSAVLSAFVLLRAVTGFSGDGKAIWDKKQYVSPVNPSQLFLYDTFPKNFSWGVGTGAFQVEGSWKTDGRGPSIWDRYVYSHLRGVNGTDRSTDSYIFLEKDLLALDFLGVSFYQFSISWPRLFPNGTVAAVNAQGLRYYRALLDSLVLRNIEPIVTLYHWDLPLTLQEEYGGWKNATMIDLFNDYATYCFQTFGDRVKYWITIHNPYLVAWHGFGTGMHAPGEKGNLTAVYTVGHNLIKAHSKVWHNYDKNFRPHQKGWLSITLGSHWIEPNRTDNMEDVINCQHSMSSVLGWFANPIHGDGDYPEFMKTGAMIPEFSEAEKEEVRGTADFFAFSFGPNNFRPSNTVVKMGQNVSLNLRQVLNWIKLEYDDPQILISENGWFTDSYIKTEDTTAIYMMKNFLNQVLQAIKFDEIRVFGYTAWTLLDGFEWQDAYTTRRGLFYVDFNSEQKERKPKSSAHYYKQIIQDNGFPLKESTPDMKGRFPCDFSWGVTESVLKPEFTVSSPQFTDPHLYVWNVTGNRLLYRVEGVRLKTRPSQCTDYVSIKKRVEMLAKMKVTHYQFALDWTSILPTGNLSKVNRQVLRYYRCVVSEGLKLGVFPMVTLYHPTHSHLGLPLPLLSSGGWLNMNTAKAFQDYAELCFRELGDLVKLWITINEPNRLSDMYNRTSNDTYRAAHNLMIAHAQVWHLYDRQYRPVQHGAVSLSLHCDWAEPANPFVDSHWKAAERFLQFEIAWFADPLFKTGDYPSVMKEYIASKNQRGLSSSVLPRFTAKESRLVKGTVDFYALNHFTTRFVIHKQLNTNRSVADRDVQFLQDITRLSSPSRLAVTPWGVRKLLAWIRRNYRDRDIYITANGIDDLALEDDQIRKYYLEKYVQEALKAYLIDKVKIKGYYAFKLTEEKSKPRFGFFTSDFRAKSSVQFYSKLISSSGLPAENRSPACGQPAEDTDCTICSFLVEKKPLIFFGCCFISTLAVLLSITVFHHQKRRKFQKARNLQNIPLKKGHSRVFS
Sequence (P16092 22-822): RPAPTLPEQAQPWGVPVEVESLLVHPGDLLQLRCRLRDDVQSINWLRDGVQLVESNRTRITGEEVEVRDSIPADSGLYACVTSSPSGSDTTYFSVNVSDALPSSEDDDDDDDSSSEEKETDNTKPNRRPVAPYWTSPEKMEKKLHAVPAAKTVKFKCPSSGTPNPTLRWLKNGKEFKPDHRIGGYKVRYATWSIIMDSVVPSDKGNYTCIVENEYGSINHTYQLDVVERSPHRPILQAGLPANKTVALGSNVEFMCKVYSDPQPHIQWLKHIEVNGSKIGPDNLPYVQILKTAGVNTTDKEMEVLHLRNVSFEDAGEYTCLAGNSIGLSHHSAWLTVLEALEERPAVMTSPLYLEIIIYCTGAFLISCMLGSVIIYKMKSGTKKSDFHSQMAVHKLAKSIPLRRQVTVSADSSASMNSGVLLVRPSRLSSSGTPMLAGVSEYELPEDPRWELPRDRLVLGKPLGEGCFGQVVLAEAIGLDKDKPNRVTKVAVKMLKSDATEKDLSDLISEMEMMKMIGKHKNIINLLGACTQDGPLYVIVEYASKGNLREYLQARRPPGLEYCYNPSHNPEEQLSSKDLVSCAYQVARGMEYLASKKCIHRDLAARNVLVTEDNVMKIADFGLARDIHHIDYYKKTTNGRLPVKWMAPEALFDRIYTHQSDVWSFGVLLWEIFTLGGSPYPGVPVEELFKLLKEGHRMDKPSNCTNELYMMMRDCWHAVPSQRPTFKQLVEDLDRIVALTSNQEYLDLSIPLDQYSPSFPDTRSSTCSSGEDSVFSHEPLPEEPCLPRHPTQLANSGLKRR
Experiment: Glucose uptake in 3T3-L1 adipocytes
Format: cell-based
Details: stimulated 20 hours, 3H-deoxy-glucose
OBSERVABLE: EC50 (nM)
// units = nM; emit number, no label

Which value of EC50 has been reported for S{Beta-180}-2-aminoethylsulfanyl-Ala[Gln121, Leu168, Cys180]FGF21 (protein, N-terminal Ala; cysteamine disulfide on Cys180) AHPIPDSSPLLQFGGQVRQRYLYTDDAQQTEAHLEIREDGTVGGAADQSPESLLQLKALKPGVIQILGVKTSRFLCQRPDGALYGSLHFDPEACSFRELLLEDGYNVYQSEAHGLPLHLPGQKSPHRDPAPRGPARFLPLPGLPPALPEPPGILAPQPPDVGSSDPLSLVGPSQGRSPSYCS in the records?
2.6
